Please respond with reported inhibition for every item in the list.
Experiment: M. tuberculosis H37Rv growth inhibitors, H37Rv strain (AID 1626);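 also: bacteria incubated seven days before Alamar blue readout; 0% = bacteria only wells and 100% = bacteria with antibiotic wells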
Settings: active compounds read high, concentration not given here
In all, about 220,000 compounds went through this assay and about 2,000 (0.91%) were called active. About 2% were inconclusive and are not listed. Not all results are given here. Results with a measured potency or affinity are listed apart.

// known answers, use as guide
> print(dat)
             smiles.representation             result
1               NC(=S)Nc1cccc(F)c1  -6.55% (inactive)
2  NCCOc1cnn(-c2ccccc2Cl)c(=O)c1Cl   0.22% (inactive)

Each of the following entries comes with a recorded value; kindly state inhibition for each.
1. O=C(NCCc1c[nH]c2ccccc12)c1cnccn1
2. Cc1cccc(NC(=O)C2(c3cccs3)CCOCC2)n1
3. CC(C)CNC(=S)N1CCN(Cc2ccc3c(c2)OCO3)CC1
4. Cc1n[nH]c(C)c1Cc1c(F)cccc1Cl
5. CC(C)(C)c1csc(Sc2ncccc2[N+](=O)[O-])n1
6. O=C(Nc1ccc([N+](=O)[O-])cc1)Nc1ccc(Cl)cc1F

Result:
2.35% (inactive)
-3.03% (inactive)
-8.68% (inactive)
-0.71% (inactive)
7.08% (inactive)
9.88% (inactive)

List the reported inhibition of each compound below.
1. O=c1ccnc(Sc2ncccc2[N+](=O)[O-])[nH]1
2. Cc1ccc(S(=O)(=O)N(C)C)cc1NC(=O)COC(=O)CCC(=O)c1cccs1
3. Nc1c(C(=O)O)cnn1-c1ccc([N+](=O)[O-])cc1
4. CC(=O)Nc1ccc(C(=O)NCC(=O)OCc2ccccc2F)cc1

Result:
1: 7.87% (inactive); 2: 0.54% (inactive); 3: -2.22% (inactive); 4: 8.24% (inactive)
